system: MDA-MB-231; assay: Cytotoxicity against human MDA-MB-231 cells assessed as inhibition of cell growth by MTT assay; format: functional, cell-based
result type: pIC50
Just so you know, pIC50 here is -log10 of the concentration in molar units; reply with that number alone.

Incoming: Provide measured pIC50 on MDA-MB-231 for COC(=O)c1cc2cc(NS(=O)(=O)c3ccc(C(C)(C)C)cc3)ccc2s1 please.
Outgoing: 4.56

Incoming: Consider the compound CCOC(=O)/C=C/c1cc2cc(NC(=O)c3ccc(C(C)(C)C)cc3)ccc2[nH]1 tested on MDA-MB-231; state its pIC50.
Outgoing: 5.95

###

assay: Inhibition of full-length HuR-ARE fluorescein-labeled Msi1 mRNA binding (unknown origin) incubated for 2 hrs by fluorescence polarization assay; design: species or system Homo sapiens
For each record, write down the corresponding pKi.
Bear in mind: pKi is minus log10 of a mol/L concentration; give just that figure.

Incoming: // Input: CN(C)c1ccc(C(=O)Nc2ccc3[nH]c(/C=C/C(=O)NO)cc3c2)cc1 . Output its pKi only.
Outgoing: 6.16

Incoming: Provide one value: measured pKi of CCOC(=O)/C=C/c1cc2cc(NC(=O)c3ccc(N(C)C)cc3)ccc2[nH]1
Outgoing: 5.36

Incoming: Give the reported pKi for this molecule. CC(C)(C)c1ccc(S(=O)(=O)Nc2ccc3[nH]c(C(=O)O)cc3c2)cc1
Outgoing: 5.21

Incoming: Determine from records and report pKi for CC(C)(C)c1ccc(C(=O)Nc2ccc3sc(C(=O)NO)cc3c2)cc1
Outgoing: 6.36

Incoming: Give the value of pKi reported for the following: CC(C)(C)c1ccc(C(=O)Nc2ccc3[nH]c(C(=O)NO)cc3c2)cc1
Outgoing: 6.19

Incoming: Tell me measured pKi for CCOC(=O)/C=C/c1cc2cc(NC(=O)c3ccc(C(C)(C)C)cc3)ccc2s1 please.
Outgoing: 4.88

Incoming: Give a short answer stating reported pKi for CC(C)(C)c1ccc(C(=O)Nc2ccc3sc(C(=O)O)cc3c2)cc1 .
Outgoing: 5.29

Incoming: Output pKi of CC(C)(C)c1ccc(S(=O)(=O)Nc2ccc3sc(C(=O)NO)cc3c2)cc1
Outgoing: 5.49

Incoming: Name the recorded pKi of the item CC(C)(C)c1ccc(S(=O)(=O)Nc2ccc3[nH]c(C(=O)NO)cc3c2)cc1 in your answer.
Outgoing: 5.76

Incoming: Please report pKi for the following molecule: CC(C)(C)c1ccc(C(=O)Nc2ccc3[nH]c(/C=C/C(=O)NO)cc3c2)cc1
Outgoing: 6.47

Incoming: Could you please provide reported pKi for CC(C)(C)c1ccc(S(=O)(=O)Nc2ccc3sc(C(=O)O)cc3c2)cc1 ? Thanks!
Outgoing: 5.62

Incoming: Answer with the recorded pKi for the molecule listed here: O=C(O)c1cc2cc([N+](=O)[O-])ccc2[nH]1
Outgoing: 5.16

Incoming: Quote pKi reported for CN(C)c1ccc(C(=O)Nc2ccc3[nH]c(/C=C/C(=O)O)cc3c2)cc1 please.
Outgoing: 5.11

Incoming: Name the recorded pKi of the molecule listed here: CC(C)(C)c1ccc(C(=O)Nc2ccc3sc(/C=C/C(=O)O)cc3c2)cc1
Outgoing: 6.01

Incoming: Give the value of pKi reported for the following: COC(=O)c1cc2cc(NS(=O)(=O)c3ccc(C(C)(C)C)cc3)ccc2s1
Outgoing: 4.81

Incoming: Return value of pKi for input CC(C)(C)c1ccc(C(=O)Nc2ccc3sc(/C=C/C(=O)NO)cc3c2)cc1 , no commentary.
Outgoing: 6.82

Incoming: Quote pKi reported for CCOC(=O)CCc1cc2cc(NC(=O)c3ccc(C(C)(C)C)cc3)ccc2s1 please.
Outgoing: 4.93
